I'd appreciate it if you could supply melting point values for the items below.

# count of solved cases: 8
Molecule | melting point
CNC(=C[N+](=O)[O-])NNc1cccc(C(F)(F)F)n1 [compound 168] | 197 °C (dec.)
CNC(=C[N+](=O)[O-])NNc1cc(C(F)(F)F)cc(OCCN2CCOCC2)n1 [compound 188] | 166 °C (dec.)
CNC(=C[N+](=O)[O-])NNS(=O)(=O)c1ccccc1 [compound 109] | 169 to 170 °C (dec.)
CNC(=C[N+](=O)[O-])NNc1nc2ccccc2s1 [compound 132] | 158 °C (dec.)
CNC(=C[N+](=O)[O-])NNc1cc(C(F)(F)F)cc(OCc2cccnc2)n1 [compound 123] | 131 °C (dec.)
CNC(=C[N+](=O)[O-])NNc1cc(C(F)(F)F)cc(OCCSc2ccccc2)n1 [compound 195] | 170 °C (dec.)
O=[N+]([O-])C=C(NNc1cc(C(F)(F)F)cc(Cl)n1)NS(=O)(=O)c1ccc(-c2ccccc2)cc1 [compound 162] | 171 to 174 °C
COc1ccc(NC(=C[N+](=O)[O-])SC)cn1 [Intermediate 49] | 134 to 137 °C

Give measured melting point for every item shown.
1. CNC(=C[N+](=O)[O-])NNc1cc(C(F)(F)F)cc(C)n1 [compound 131]
2. CNC(=C[N+](=O)[O-])NNc1ccccn1 [compound 22]
3. CNC(=C[N+](=O)[O-])NNC(O)C(F)(F)F (centres unmarked) [compound 23]
4. CNC(=C[N+](=O)[O-])NN=C(C)c1cccnc1 [compound 34]
5. CSC(=C[N+](=O)[O-])NS(=O)(=O)c1ccc2ccccc2c1 [Intermediate 61]
6. CNC(=C[N+](=O)[O-])NNc1cc(C(F)(F)F)cc(C)n1 [compound 27]

["165 °C (dec.)", "156 °C (dec.)", "144 to 145 °C", "181 °C (dec.)", "205 °C (dec.)", "161 to 162 °C"]

----------
I'd appreciate it if you could supply melting point values for the items below.

# count of solved cases: 4
Compound | Observed
CNC(=C[N+](=O)[O-])NNc1cc(C(F)(F)F)cc(OCC2CCCO2)n1 (centres unmarked) | 97 to 99 °C
CCOC(=O)Cc1ccc(NC(=C[N+](=O)[O-])NN)cc1 | 68 to 70 °C
COCCNC(=C[N+](=O)[O-])NNc1cc(C(F)(F)F)cc(Cl)n1 | 175 to 178 °C (dec.)
Cc1ccc(NC(=C[N+](=O)[O-])NN)cc1 | 191 °C (dec.)

Entry CNC(=C[N+](=O)[O-])NNc1ccc(Cl)cn1 ; melting point = 206 °C (dec.)

----------
Subject Of Test: human MMP-9 (gelatinase B) (Homo sapiens, UniProt P14780)
Construct: endogenous in cells; host or cells: HT1080 human fibrosarcoma cells (ATCC CCL-121), PMA-stimulated; enzyme purified from the culture supernatant
Sequence (P14780 107-707 limits assumed): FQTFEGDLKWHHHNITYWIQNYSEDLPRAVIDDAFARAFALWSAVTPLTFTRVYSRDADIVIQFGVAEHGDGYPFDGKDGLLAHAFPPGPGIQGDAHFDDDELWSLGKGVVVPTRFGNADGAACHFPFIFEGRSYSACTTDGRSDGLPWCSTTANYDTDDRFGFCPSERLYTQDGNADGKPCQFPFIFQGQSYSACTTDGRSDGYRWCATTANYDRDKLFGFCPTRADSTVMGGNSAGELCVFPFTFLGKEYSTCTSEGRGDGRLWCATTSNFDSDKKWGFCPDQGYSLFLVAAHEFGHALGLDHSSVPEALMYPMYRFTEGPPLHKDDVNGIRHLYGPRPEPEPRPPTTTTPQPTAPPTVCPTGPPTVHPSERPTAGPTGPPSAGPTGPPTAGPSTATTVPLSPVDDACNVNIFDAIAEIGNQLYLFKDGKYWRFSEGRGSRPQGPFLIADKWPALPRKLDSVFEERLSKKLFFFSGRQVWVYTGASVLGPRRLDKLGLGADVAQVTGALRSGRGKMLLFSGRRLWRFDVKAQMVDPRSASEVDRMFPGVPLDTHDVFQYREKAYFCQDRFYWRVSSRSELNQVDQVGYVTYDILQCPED
Test Details: Inhibition activity against human MMP-9 (gelatinase B), fluorescent peptide substrate
Assay type: biochemical
Measurement Parameters: compounds of the formula (I); 1st measurement; read-out: MMP-9 inhibition activities IC50, 1st
I'd appreciate it if you could supply IC50 values for the items below.
Field: value (include unit after the number)

Give measured IC50 for every item shown.
1. CNC(=C[N+](=O)[O-])NNc1cc(C(F)(F)F)cc(C)n1 [compound 27]
2. NNC(=C[N+](=O)[O-])NC1CC1 [compound 90]

1. 26.6 µM
2. 18.7 µM

----------
Subject Of Test: human MMP-9 (gelatinase B) (Homo sapiens, UniProt P14780)
Construct: endogenous in cells; host or cells: HT1080 human fibrosarcoma cells (ATCC CCL-121), PMA-stimulated; enzyme purified from the culture supernatant
Test Details: Inhibition activity against human MMP-9 (gelatinase B), fluorescent peptide substrate
Format: biochemical
Measurement Parameters: compounds of the formula (I); 2nd measurement; read-out: MMP-9 inhibition activities IC50, 2nd
Sorting guide: entries reporting IC50 beneath 30 µM go in the Fulfilled pile, the rest go in the Not fulfilled pile.

Compound String | Category
NNC(=C[N+](=O)[O-])NC1CCCC1 | Not fulfilled
CNC(=C[N+](=O)[O-])NN=Cc1ccc2c(c1)OCCO2 | Fulfilled
CNC(=C[N+](=O)[O-])NN=C(C)c1cccnc1 | Fulfilled
CNC(=C[N+](=O)[O-])NNc1c([N+](=O)[O-])c(C)nn1C | Fulfilled
CNC(=C[N+](=O)[O-])NNc1cc(C(F)(F)F)ccn1 | Fulfilled
CCOCCCOc1cc(C(F)(F)F)cc(NNC(=C[N+](=O)[O-])NC)n1 | Fulfilled

Problem: For the compound COc1ccc(NC(=C[N+](=O)[O-])NN)cn1 , is IC50 under 30 µM?
Fulfilled

Problem: For the compound CS(=O)(=O)NC(=C[N+](=O)[O-])NNc1cc(C(F)(F)F)cc(Cl)n1 , is IC50 under 30 µM?
Fulfilled

Problem: For the compound CNC(=C[N+](=O)[O-])NNc1cc(C(F)(F)F)cc(Oc2ccccc2)n1 , is IC50 under 30 µM?
Fulfilled

Problem: For the compound CNC(=C[N+](=O)[O-])NN , is IC50 under 30 µM?
Not fulfilled

----------
Subject Of Test: human MMP-9 (gelatinase B) (Homo sapiens, UniProt P14780)
Construct: endogenous in cells; host or cells: HT1080 human fibrosarcoma cells (ATCC CCL-121), PMA-stimulated; enzyme purified from the culture supernatant
Test Details: Inhibition activity against human MMP-9 (gelatinase B), fluorescent peptide substrate
Type: biochemical
Measurement Parameters: compounds of the formula (I); 2nd measurement; read-out: MMP-9 inhibition activities IC50, 2nd
Measurement Type: IC50

Compound | IC50
CC(C)NC(=C[N+](=O)[O-])NN [compound 88] | 57.5 µM

Give measured IC50 for every item shown.
1. CCOCCOc1cc(C(F)(F)F)cc(NNC(=C[N+](=O)[O-])NC)n1 [Compound No. 107]
2. CNC(=C[N+](=O)[O-])NNc1cc(C(F)(F)F)cc(Cl)n1 [Compound No. 37]

1: 7.4 µM; 2: 7 µM

----------
Subject Of Test: human MMP-9 (gelatinase B) (Homo sapiens)
Construct: endogenous in cells; host or cells: HT1080 human fibrosarcoma cells (ATCC CCL-121), PMA-stimulated; enzyme purified from the culture supernatant
Test Details: Inhibition activity against human MMP-9 (gelatinase B), fluorescent peptide substrate
Assay type: biochemical
Measurement Parameters: compounds of the formula (I); average of 1st and 2nd (or single measurement); read-out: MMP-9 inhibition activities IC50, Average
Sorting guide: entries reporting IC50 beneath 40 µM go in the 1 pile, the rest go in the -1 pile.

Solved entries:
Compound String | Category
CNC(=C[N+](=O)[O-])NNc1ccnc2cc(C(F)(F)F)ccc12 | 1
CSc1ccc(NC(=C[N+](=O)[O-])NN)cc1 | -1
CS(=O)(=O)NC(=C[N+](=O)[O-])NNc1cc(C(F)(F)F)cc(Cl)n1 | 1
CNC(=C[N+](=O)[O-])NNc1nc(OC)nc(OC)n1 | 1
CNC(=C[N+](=O)[O-])NNc1cccc(C(=O)O)c1 | -1
CCNC(=C[N+](=O)[O-])NNc1cc(C(F)(F)F)cc(Cl)n1 | 1
CCOCCCOc1cc(C(F)(F)F)cc(NNC(=C[N+](=O)[O-])NC)n1 | 1
CS(=O)(=O)NC(=C[N+](=O)[O-])NN1CCOCC1 | 1
CNC(=C[N+](=O)[O-])NNc1cc(C(F)(F)F)cc(OCCc2ccccn2)n1 | 1
CNC(=C[N+](=O)[O-])NN=C(C)C | 1

Problem: For the molecule NNC(=C[N+](=O)[O-])NN1CCOCC1 , is IC50 under 40 µM?
-1

Problem: For the molecule CNC(=C[N+](=O)[O-])NNc1cc(C(F)(F)F)cc(OCCOC(C)C)n1 , is IC50 under 40 µM?
1

Problem: For the molecule CNC(=C[N+](=O)[O-])NNc1cc(C(F)(F)F)cc(OCCN(C)C)n1 , is IC50 under 40 µM?
1

Problem: For the molecule CNC(=C[N+](=O)[O-])NNc1c(Cl)cncc1Cl , is IC50 under 40 µM?
1

Problem: For the molecule CNC(=C[N+](=O)[O-])NNc1cc(OCCOC)cc(C(F)(F)F)c1 , is IC50 under 40 µM?
1

Problem: For the molecule CNC(=C[N+](=O)[O-])NN=Cc1ncc(C(F)(F)F)cc1Cl , is IC50 under 40 µM?
1

Problem: For the molecule NNC(=C[N+](=O)[O-])NCc1cccc(C(F)(F)F)c1 , is IC50 under 40 µM?
1

Problem: For the molecule CNC(=C[N+](=O)[O-])NN , is IC50 under 40 µM?
-1

Problem: For the molecule NNC(=C[N+](=O)[O-])NC1CC1 , is IC50 under 40 µM?
1

Entry source: patent US6596863B2
